System: biotinyl-Met-oxazolone
test.details: self-aminoacylation, catalytic enhancement (BMO) (fold over background); higher = more active; k-Seq, kA / k0A0; sequences stand for … in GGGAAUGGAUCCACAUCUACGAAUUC…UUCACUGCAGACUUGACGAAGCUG
Fewer inactive variants are shown than the library holds.
property.label: self-aminoacylation

INSERT INTO results (entry_sequence, target_under_test, measured_value) VALUES
  ('ACGUUUGCUAAUUGUCGCAAG [Fam3.1 aminoacylation ribozyme variant]', 'biotinyl-Met-oxazolone', 1.81),
  ('CUGCUUCAAACAAUCGGUAUG [Fam1A.1 aminoacylation ribozyme variant]', 'biotinyl-Met-oxazolone', 1.56),
  ('AUUACCCUGGUGAUCGAAUGA [Fam2.1 aminoacylation ribozyme variant]', 'biotinyl-Met-oxazolone', 0.846),
  ('AUUCACCUAGGUCAUAAGGUG [Fam2.2 aminoacylation ribozyme variant]', 'biotinyl-Met-oxazolone', 3.33),
  ('AUUACCCUUGUCAUCGAGUAA [Fam2.1 aminoacylation ribozyme variant]', 'biotinyl-Met-oxazolone', 1.36),
  ('CUUCACCUAGGUCAUCGGGUA [Fam2.2 aminoacylation ribozyme variant]', 'biotinyl-Met-oxazolone', 6.65),
  ('AAAUUUGCUAAUAGGCGCAAG [Fam3.1 aminoacylation ribozyme variant]', 'biotinyl-Met-oxazolone', 1.28),
  ('AUAACCCUGAUCAUCGAGUGA [Fam2.1 aminoacylation ribozyme variant]', 'biotinyl-Met-oxazolone', 6.16),
  ('CUACCUCAAACAAUCGGUUUG [Fam1A.1 aminoacylation ribozyme variant]', 'biotinyl-Met-oxazolone', 0.938),
  ('AUUCACCUAGGUUAUCGGCUG [Fam2.2 aminoacylation ribozyme variant]', 'biotinyl-Met-oxazolone', 1.73),
  ('AAAUUUGCUAAUAGUCGCAUG [Fam3.1 aminoacylation ribozyme variant]', 'biotinyl-Met-oxazolone', 2.13),
  ('AUCGCCCUGGUCAUCGAGUGA [Fam2.1 aminoacylation ribozyme variant]', 'biotinyl-Met-oxazolone', 16.5),
  ('CCACACUUUAAGCAUUCGGUC [Fam1B.1 aminoacylation ribozyme variant]', 'biotinyl-Met-oxazolone', 1.01),
  ('AUUCCCCUGGUCAUCGAGUGU [Fam2.1 aminoacylation ribozyme variant]', 'biotinyl-Met-oxazolone', 3.09),
  ('AGUCACCUAGGUCAUCGGGUU [Fam2.2 aminoacylation ribozyme variant]', 'biotinyl-Met-oxazolone', 5.25),
  ('AUCUCCCUGGUCAUCGAGUGA [Fam2.1 aminoacylation ribozyme variant]', 'biotinyl-Met-oxazolone', 9.05),
  ('AAGUUUGAUAAUAGUCGGAAG [Fam3.1 aminoacylation ribozyme variant]', 'biotinyl-Met-oxazolone', 0.556),
  ('AUUCACCUAGGACUUCGGGUG [Fam2.2 aminoacylation ribozyme variant]', 'biotinyl-Met-oxazolone', 2.75);

----------
Test system: biotinyl-Ile-oxazolone
test.details: self-aminoacylation, catalytic enhancement (BIO) (fold over background); higher = more active; k-Seq, kA / k0A0; sequences stand for … in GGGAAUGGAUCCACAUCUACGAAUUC…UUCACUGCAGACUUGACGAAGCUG
Fewer inactive variants are shown than the library holds.
Label 1.0 when self-aminoacylation is at or above 2; anything below gets 0.0.

INSERT INTO results (entry_sequence, target_under_test, category_label) VALUES
  ('AUUCACCUAGCUCAUGGGGUG [Fam2.2 aminoacylation ribozyme variant]', 'biotinyl-Ile-oxazolone', 1.0),
  ('GUACUUCAAAGAAUCGGUCUG [Fam1A.1 aminoacylation ribozyme variant]', 'biotinyl-Ile-oxazolone', 0.0),
  ('CUACUUCAAAUCAUCGGUCUG [Fam1A.1 aminoacylation ribozyme variant]', 'biotinyl-Ile-oxazolone', 0.0),
  ('AUUCACCUAGGUUAUCGCGUG [Fam2.2 aminoacylation ribozyme variant]', 'biotinyl-Ile-oxazolone', 1.0),
  ('CCACACUUCAAUCAAUGGGUC [Fam1B.1 aminoacylation ribozyme variant]', 'biotinyl-Ile-oxazolone', 0.0),
  ('AAGUUUAGUAAUAGUCGCAAG [Fam3.1 aminoacylation ribozyme variant]', 'biotinyl-Ile-oxazolone', 0.0),
  ('AUCACCCUGAUCAUCGAGUGA [Fam2.1 aminoacylation ribozyme variant]', 'biotinyl-Ile-oxazolone', 1.0);
